test system: COLO 205 colon; experiment: NCI-60 one-dose screen, 48 h; settings: 10 µM unless noted
This is part of a sample that, as a whole, favours compounds with a hit. Of some 83,000 tested, about 20% had one in any assay. Calls of active or inactive are those of the source. The calls were made as follows: active = growth percent below 10; inactive = the rest.
Write down one outcome, taken from active, inactive

See these solved cases before continuing.
## Task Recorded test outcome, item `C=C(C)[C@@H]1CC[C@]2(C(N)=O)CC[C@]3(C)[C@H](CC[C@@H]4[C@@]5(C)C/C(=C/c6cccnc6)C(=O)C(C)(C)[C@@H]5CC[C@]43C)[C@@H]12`
## Result active

## Task Follow-up entry: `C#CCNC(=O)CC[C@@H](C)[C@H]1CC[C@H]2[C@@H]3CC[C@@H]4CC(=O)CC[C@]4(C)[C@H]3CC[C@]12C`
## Result active

## Task Can you check `O=C(O)c1cc([N+](=O)[O-])ccc1Br` next?
## Result inactive

## Task Let us now turn to O=C1CC(c2ccc3c(c2)OCO3)Nc2ccccc21 (stereo not drawn)
## Result active

## Task Same question for `O=S(=O)(NCc1ccccc1)c1ncnc2nc[nH]c12` please.
## Result inactive

More entries:
## Task // return assay outcome for `c1cc2ccc1CNCCN1CCNCc3ccc(cc3)Oc3ccc(cc3)CNCCN(CCNCc3ccc(cc3)O2)CCNCc2ccc(cc2)Oc2ccc(cc2)CNCC1`
## Result active

## Task Next entry: `COc1ccc(-c2c(C)nn3c(NCCN4CCOCC4)cc(C)nc23)cc1OC`
## Result inactive

## Task Record: `COc1cc(NCc2cn(-c3ccc(C(=O)O)cc3)nc2-c2ccc(C(=O)O)cc2)cc(OC)c1OC`
## Result inactive

## Task Here is the next compound: `N#C/C(C(=O)c1ccccc1)=C1/C(=O)Nc2ccccc21`
## Result inactive

## Task Another compound to check: `N=C(N)c1ccc(-c2ccc(-c3ccc(-c4cccs4)s3)s2)cc1F`
## Result inactive

## Task How about this compound: CC[C@]1(O)CC2CN(CCc3c([nH]c4ccccc34)[C@@](C(=O)OC)(c3cc4c(cc3OC)N(C=O)[C@H]3[C@@](O)(C(=O)OC)[C@H](OC(C)=O)[C@]5(CC)C=CCN6CC[C@]43[C@@H]65)C2)C1 (stereo partly drawn)
## Result active

---

tested on: COLO 205 colon; test: NCI-60 one-dose screen, 48 h; details: 10 µM unless noted
This is part of a sample that, as a whole, favours compounds with a hit. Of some 83,000 tested, about 20% had one in any assay. Activity calls are given as the source filed them. How the source made its calls: active means growth percent below 10; inactive means the rest.
Allowed answers: active, inactive

## Task Which outcome was assigned to CC1Cc2c(Cl)ncnc2N(C)c2ccccc21 (centres undefined) in this test?
## Result active

## Task Next record, please: `CC1(C)CC[C@]2(C(N)=O)CC[C@]3(C)C(=CC[C@@H]4[C@@]5(C)C/C(=C/c6cccnc6)C(=O)C(C)(C)[C@@H]5CC[C@]43C)[C@@H]2C1`
## Result active

## Task Would you kindly repeat that for CCOC(=O)c1nn(C2CCCCO2)c2ccc(NC(=O)Cn3nnc4ccccc43)cc12 (centres undefined) ?
## Result inactive

## Task Field entry: `Clc1ccc2nc(-c3ccc(-c4ccc(/C=N/NC5=NCCN5)cc4)s3)cn2c1`
## Result inactive

## Task `O=C1CN(Cc2ccc(C(=O)NO)cc2)C(=O)[C@@H](Cc2ccccc2)N1` , same question.
## Result inactive

## Task Same question for `O=C1NC(=O)C(Cc2ccccc2)(Cc2ccccc2)N1` please.
## Result inactive

## Task Likewise for `O=C1C(Cl)=C(Nc2ccc3cn[nH]c3c2)C(=O)c2ccccc21` ?
## Result active

## Task Next record, please: `CC(C)=CC/C=C(/C)[C@H]1CC[C@]2(C)[C@@H]1CC[C@@H]1[C@@]3(C)CCC(=O)NC(C)(C)[C@@H]3CC[C@]12C`
## Result active

Read the next record carefully.
## Task What classification did `Cn1cc(-c2nnc(-c3cn(C)c4ncc(Br)cc34)s2)c2cc(Br)ccc21` end up with in this test?
## Result inactive
